The following variants are listed with their measured normalized RNA/DNA level with ligand (log10) values.
B1: library; a variant is named by its letters at N, in order (parent)
chain: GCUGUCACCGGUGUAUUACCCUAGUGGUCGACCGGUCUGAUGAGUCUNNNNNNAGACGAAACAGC

- Variants of: B1
- test: normalized RNA/DNA level with ligand (relative to sTRSVctl = 100) (log10 (% of sTRSVctl)); ligand: hypoxanthine (xanthine aptamer); higher = less ribozyme self-cleavage, higher mRNA level
- test.parameters: ligand concentration (+) RNA-Seq: 5 mM, HEK293T, reporter: mCherry (pCS4076), ligand present: yes
# output: bare number, no unit

Known normalized RNA/DNA level with ligand (log10) results, listed for orientation:
CUCUUA: 1.89
AUAUAU: 1.9
UUACGC: 1.94
CAAGUG: 1.92
CCCUUU: 2

Tell us which normalized RNA/DNA level with ligand (log10) value is on record for UCUUUC
2.01

Tell us which normalized RNA/DNA level with ligand (log10) value is on record for AGGGUC
2

Tell us which normalized RNA/DNA level with ligand (log10) value is on record for UGAACA
1.96

Tell us which normalized RNA/DNA level with ligand (log10) value is on record for UCGCGG
1.93
